Provide the reported IC50 of each item.
Molecular target: human BACE1 (Homo sapiens)
Test: BACE1 fluorescent kinetic assay (cleavage of peptide substrate WABC-6)
Format: biochemical
Settings: Examples 109-141; 10 nM enzyme, 25 μM substrate WABC-6, pH 4.5, room temperature

IC50 reading for C=CC[C@H](C)c1cccc(C2(c3ccc(OC(F)F)cc3)N=C(N)N(C)C2=O)c1 (some centres unmarked) : 110 to 1000 nM

IC50 reading for CC(=O)Nc1cccc(C2(c3ccc(OC(F)F)cc3)N=C(N)N(C)C2=O)c1 (centres unmarked) : 110 to 1000 nM

IC50 reading for CC(C)C#Cc1cc(C2(c3ccc(OC(F)F)cc3)N=C(N)N(C)C2=O)ccc1F (centres unmarked) : < 100 nM

IC50 reading for CCOCCC(C)c1cccc(C2(c3ccc(OC(F)F)cc3)N=C(N)N(C)C2=O)c1 (centres unmarked) : > 1000 nM

IC50 reading for COCCC(C)c1cccc(C2(c3ccc(OC(F)F)cc3)N=C(N)N(C)C2=O)c1 (centres unmarked) : > 1000 nM

IC50 reading for CN1C(=O)[C@](c2ccc(OC(F)F)cc2)(c2ccc(F)c(/C=C/CCF)c2)N=C1N : < 100 nM

IC50 reading for CC(C)Oc1cc(C2(c3ccc(OC(F)F)cc3)N=C(N)N(C)C2=O)ccc1F (centres unmarked) : 110 to 1000 nM

IC50 reading for CN1C(=O)[C@@](c2ccc(OC(F)F)cc2)(c2ccc(F)c(/C=C/CCF)c2)N=C1N : > 1000 nM

----------
Provide the reported IC50 of each item.
Molecular target: human BACE1 (Homo sapiens, UniProt P56817)
Sequence (P56817 46-501): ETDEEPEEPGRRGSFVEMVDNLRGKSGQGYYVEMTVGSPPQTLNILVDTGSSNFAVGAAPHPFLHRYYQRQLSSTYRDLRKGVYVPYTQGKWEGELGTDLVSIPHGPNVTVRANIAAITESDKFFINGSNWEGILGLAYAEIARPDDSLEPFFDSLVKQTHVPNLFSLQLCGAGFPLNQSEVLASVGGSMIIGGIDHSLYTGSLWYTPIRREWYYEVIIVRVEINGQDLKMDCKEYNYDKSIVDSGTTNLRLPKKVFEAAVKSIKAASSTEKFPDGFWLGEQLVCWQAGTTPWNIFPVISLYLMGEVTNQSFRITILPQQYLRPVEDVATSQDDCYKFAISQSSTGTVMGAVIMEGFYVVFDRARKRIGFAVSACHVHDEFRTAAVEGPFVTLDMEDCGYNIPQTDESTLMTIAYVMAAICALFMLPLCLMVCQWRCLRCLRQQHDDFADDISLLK
Test: BACE1 fluorescent kinetic assay (cleavage of peptide substrate WABC-6)
Type: biochemical
Conditions: Activity Table, Examples 1-108; 10 nM enzyme, 25 μM substrate WABC-6, pH 4.5, room temperature
Method: Evaluation of BACE1 Binding Affinity of Test Compounds Fluorescent Kinetic Assays Dilution and mixing steps: total reaction volume: 100 μL 100 μM substrate dilution in 1×PBS was prepared, and Fluorescence Readings: Readings at λex 320 nm and λem 420 nm are taken every 40 sec for 30 min at room temperature and the linear slope for substrate cleavage rate (vi) determined.

IC50 reading for CN1C(=O)C(c2ccc(OC(F)F)cc2)(c2cccc(CNCc3ccco3)c2)N=C1N (stereo not drawn) [Example 68] : 110 to 1000 nM

IC50 reading for CC(C)CC(=O)Nc1cccc(C2(c3ccc(OC(F)F)cc3)N=C(N)N(C)C2=O)c1 (stereo not drawn) [Example 26] : < 100 nM

IC50 reading for CN1C(=O)C(c2ccc(OC(F)F)cc2)(c2ccc(F)c(C#CCCCCl)c2)N=C1N (stereo not drawn) [Example 20A] : < 100 nM

IC50 reading for CN1C(=O)C(c2ccc(OC(F)F)cc2)(c2cccc(NCc3ccco3)c2)N=C1N (stereo not drawn) [Example 51] : < 100 nM

IC50 reading for C=CC#Cc1cc(C2(c3ccc(OC(F)F)cc3)N=C(N)N(C)C2=O)ccc1F (stereo not drawn) [Example 87] : < 100 nM

IC50 reading for CN1C(=O)[C@@](c2ccc(OC(F)F)cc2)(c2ccc(F)c(OCCC(F)F)c2)N=C1N [Example 94] : < 100 nM

----------
Molecular target: human BACE1 (Homo sapiens)
Test: BACE1 fluorescent kinetic assay (cleavage of peptide substrate WABC-6)
Format: biochemical
Conditions: Activity Table, Examples 1-108; 10 nM enzyme, 25 μM substrate WABC-6, pH 4.5, room temperature
pIC50: −log10 of the molar value.
attribute-measured: pIC50

pIC50 reading for CN1C(=O)C(c2ccc(OC(F)F)cc2)(c2cccc(NC3CCC3)c2)N=C1N (centres unmarked) : 6.00 to 6.96

pIC50 reading for CCOCCC#Cc1cccc(C2(c3ccc(OC(F)F)cc3)N=C(N)N(C)C2=O)c1 (centres unmarked) [Example 96] : > 7.00

pIC50 reading for C=C(C)CCOc1cccc([C@@]2(c3ccc(OC(F)F)cc3)N=C(N)N(C)C2=O)c1 [Example 10G] : > 7.00

pIC50 reading for CN1C(=O)[C@](c2ccc(OC(F)F)cc2)(c2cccc(CCCCC#N)c2)N=C1N [Example 11B] : < 6.00

pIC50 reading for CN1C(=O)C(c2ccc(OC(F)F)cc2)(c2cccc(Cc3ccco3)c2)N=C1N (centres unmarked) : 6.00 to 6.96

pIC50 reading for CN1C(=O)C(c2ccc(OC(F)F)cc2)(c2cccc(NC(=O)C=Cc3ccccc3)c2)N=C1N (centres unmarked) : 6.00 to 6.96

pIC50 reading for CCOCCC#Cc1cccc(C2(c3ccc(OC(F)F)cc3)N=C(N)N(C)C2=O)c1 (centres unmarked) [Example 73] : > 7.00

pIC50 reading for CN(C)Cc1cccc(C2(c3ccc(OC(F)F)cc3)N=C(N)N(C)C2=O)c1 (centres unmarked) : < 6.00

pIC50 reading for CN1C(=O)C(c2ccc(OC(F)F)cc2)(c2cccc(NC(=O)CCCl)c2)N=C1N (centres unmarked) : 6.00 to 6.96

pIC50 reading for CCC(=O)Nc1cccc(C2(c3ccc(OC(F)F)cc3)N=C(N)N(C)C2=O)c1 (centres unmarked) : 6.00 to 6.96

pIC50 reading for C=CC[C@H](C)Oc1cccc([C@@]2(c3ccc(OC(F)F)cc3)N=C(N)N(C)C2=O)c1 [Example 10E] : 6.00 to 6.96

pIC50 reading for CN1C(=O)C(c2ccc(OC(F)F)cc2)(c2ccc(F)c(OCCC(F)F)c2)N=C1N (centres unmarked) : > 7.00

pIC50 reading for CN1C(=O)C(c2ccc(OC(F)F)cc2)(c2cccc(NC3CCCCC3)c2)N=C1N (centres unmarked) : 6.00 to 6.96

pIC50 reading for CN1C(=O)C(c2ccc(OC(F)F)cc2)(c2cccc(NC(=O)COCc3ccccc3)c2)N=C1N (centres unmarked) : 6.00 to 6.96

pIC50 reading for CN1C(=O)C(c2ccc(OC(F)F)cc2)(c2cccc(OCCCF)c2)N=C1N (centres unmarked) : > 7.00

pIC50 reading for CC(C)Nc1cccc(C2(c3ccc(OC(F)F)cc3)N=C(N)N(C)C2=O)c1 (centres unmarked) : 6.00 to 6.96

pIC50 reading for CN1C(=O)C(c2ccc(OC(F)F)cc2)(c2ccc(F)c(C#CCF)c2)N=C1N (centres unmarked) : > 7.00

----------
Molecular target: human BACE1 (Homo sapiens)
Experiment: BACE1 fluorescent kinetic assay (cleavage of peptide substrate WABC-6)
Type: biochemical
Settings: Activity Table, Examples 1-108; 10 nM enzyme, 25 μM substrate WABC-6, pH 4.5, room temperature
pIC50: −log10 of the molar value.
Provide the reported pIC50 of each item.

pIC50 reading for C=CCCOc1cccc([C@]2(c3ccc(OC(F)F)cc3)N=C(N)N(C)C2=O)c1 [Example 10B] : 6.00 to 6.96

pIC50 reading for C/C=C\c1cc([C@@]2(c3ccc(OC(F)F)cc3)N=C(N)N(C)C2=O)ccc1F [Example 76B] : < 6.00

pIC50 reading for CN1C(=O)C(c2ccc(OC(F)F)cc2)(c2cccc(O)c2)N=C1N (centres unmarked) : 6.00 to 6.96

pIC50 reading for C/C=C\c1cc([C@]2(c3ccc(OC(F)F)cc3)N=C(N)N(C)C2=O)ccc1F [Example 76A] : < 6.00

pIC50 reading for CN1C(=O)C(c2ccc(OC(F)F)cc2)(c2ccc(F)c(C#CCCF)c2)N=C1N (centres unmarked) : > 7.00

pIC50 reading for CCCCNc1cccc(C2(c3ccc(OC(F)F)cc3)N=C(N)N(C)C2=O)c1 (centres unmarked) : > 7.00

pIC50 reading for CN1C(=O)C(c2ccc(OC(F)F)cc2)(c2cccc(Nc3ccccc3)c2)N=C1N (centres unmarked) : 6.00 to 6.96

pIC50 reading for CCCNc1cccc(C2(c3ccc(OC(F)F)cc3)N=C(N)N(C)C2=O)c1 (centres unmarked) : > 7.00

----------
Molecular target: human BACE1 (Homo sapiens)
Assay: BACE1 fluorescent kinetic assay (cleavage of peptide substrate WABC-6)
Assay type: biochemical
Details: Examples 109-141; 10 nM enzyme, 25 μM substrate WABC-6, pH 4.5, room temperature
Method: Evaluation of BACE1 Binding Affinity of Test Compounds Fluorescent Kinetic Assays Dilution and mixing steps: total reaction volume: 100 μL 100 μM substrate dilution in 1×PBS was prepared, and Fluorescence Readings: Readings at λex 320 nm and λem 420 nm are taken every 40 sec for 30 min at room temperature and the linear slope for substrate cleavage rate (vi) determined.
Provide the reported IC50 of each item.

GET /values?item= C=CCCCCc1cccc(C2(c3ccc(OC(F)F)cc3)N=C(N)N(C)C2=O)c1 (stereo not shown) [Example 125] &system= human BACE1 (Homo sapiens) returns IC50: < 100 nM

GET /values?item= COCCCC/C=C/c1cccc([C@@]2(c3ccc(OC(F)F)cc3)N=C(N)N(C)C2=O)c1 &system= human BACE1 (Homo sapiens) returns IC50: < 100 nM

GET /values?item= C=CCCCCc1cccc(C2(c3ccc(OC(F)F)cc3)N=C(N)N(C)C2=O)c1 (stereo not shown) [Example 121] &system= human BACE1 (Homo sapiens) returns IC50: < 100 nM

GET /values?item= CCCCCCc1cccc(C2(c3ccc(OC(F)F)cc3)N=C(N)N(C)C2=O)c1 (stereo not shown) &system= human BACE1 (Homo sapiens) returns IC50: 110 to 1000 nM
